t½ at pH 6.0 values, listed per item
# Study system: SARS-COV-2 RBD-MMH (SARS-COV-2 RBD extracellular domain with C-terminal myc-myc-hexahistidine tag) (SARS-CoV-2)
Note: unit min is implicit; provide only the numeric part.

For orientation, consider the following solved cases.
mAb14285 (antibody, V domains shown) VH: QVQLVQSGAEVKKPGASVKVSCKASGYTFTGYFIHWVRQAPGQGLEWMGWISPISGGTNYAQKFQGRVTVTRDTSITTAYMELSRLTSDDTAVYHCAREGGTWKGDFDYWGQGTLVTVSS VL: QSALTQPASVSGSPGQSITISCTGTSSDVESYNLVSWYQQHPGKAPKLMIYEGSKRPSGVSNRFSGSKSGNTASLTISGLQAEDEADYYCSSYAGSSTWVFGGGTKLTVLG; 0.8
mAb15170 (antibody, V domains shown) VH: EVQLVESGGGLVQPGGSLRLSCAATGITVSSNYMSWVRQAPGKGLEWVSLIYSGGSTFYADSVKGRFTISRHNSKNTLYLQMSSLRAEDTAVYYCARDLVDFGMDVWGQGTTVTVSS VL: DIQLTQSPSSLSASVGDRVTITCRASQGISNYLAWYQQKPGKAPKLLIYAASTLQSGVPSRFSGSGSGTDFTLTISSLQPEDFGTYYCQQLNSDSPTFGQGTKVEIKR; 144
mAb14284 (antibody, V domains shown) VH: QITLKESGPTLVKPTQTLTLTCTFSGFSFSTSGVGVGWIRQPPGKTLEWLALIYWDDDKRYSPSLKSRLTITKDTSKNQVVLTMTNMDPVDTATYFCAHHGIPTIFGYWGQGALVTVSS VL: QSALTQPASVSGSPGQSITISCTGTSSDLGVFNYVSWYQQHPGKAPKLMIYEVTNRPSGVSNRFSGSKSGNTASLTISGLQAEDEADYYCSSYTTSSTVFGGGTKLTVLG; 20.1

Let us examine a further case.
Ask: Quick one: t½ at pH 6.0 of mAb14247 (antibody, V domains shown) VH: QITLKESGPTLVKPTQTLTLTCTFSGFSLSTSAVGVGWIRQPPGKALEWLALIYWDDDKRYSPSLKSRLTITKDTSKNQLVLTMTNVDPVDTATYYCAHHTIQLIFDYWGQGTLVTVSS VL: QSALTQPASVSGSPGQSITISCTATSSDVGNYNYVSWYQQHPGKAPKLMIYEVSNRPSGVSNRFSGSKSGNTASLTISGLQAEDEADYYCSSYTSSSTPLVFGGGTKLTVLG ?
Result: 6.9

Values from patent US20260069689A1
